# assayed_target: T1, human PD-L1 (human, UniProt Q9NZQ7 19-290)
# T1 construct: also called huPD-L1; CD274
# T1 sequence (Q9NZQ7 19-290): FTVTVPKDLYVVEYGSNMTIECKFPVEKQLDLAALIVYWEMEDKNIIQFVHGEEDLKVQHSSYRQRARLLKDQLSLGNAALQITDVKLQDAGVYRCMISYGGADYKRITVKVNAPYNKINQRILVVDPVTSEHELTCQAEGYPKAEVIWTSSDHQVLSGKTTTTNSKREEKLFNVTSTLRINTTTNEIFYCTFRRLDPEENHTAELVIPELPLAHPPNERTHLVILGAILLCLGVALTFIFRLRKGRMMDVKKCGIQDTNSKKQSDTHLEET
# procedure_details: flow cytometry; PD-L1 MFI over CD28 MFI
Reported Ratio of PDL1:CD28 values for a set of binders
Answer with a number only, understood to be in ratio.

CD80 IgV-Fc T13R/Q33R/E35D/M38I/M47L/V68M/E95V/L97Q (Fc fusion, not shown: a dimerising Fc or GST) VIHVTKEVKEVARLSCGHNVSVEELAQTRIYWRKDKKIVLTMMSGDLNIWPEYKNRTIFDITNNLSIMILALRPSDEGTYECVVLKYEKDAFKRVHQAEVTLSVKAD
17.2
CD80 IgV-Fc T13R/Q33R/E35D/M47L/V68M/L85M (Fc fusion, not shown: a dimerising Fc or GST) VIHVTKEVKEVARLSCGHNVSVEELAQTRIYWRKDKKMVLTMMSGDLNIWPEYKNRTIFDITNNLSIMILALRPSDEGTYECVVMKYEKDAFKREHLAEVTLSVKAD
169
CD80 IgV-Fc T13R/Q33L/E35D/M47V/T62S/V68M/L85M (Fc fusion, not shown: a dimerising Fc or GST) VIHVTKEVKEVARLSCGHNVSVEELAQTRIYWLKDKKMVLTMMSGDVNIWPEYKNRTIFDISNNLSIMILALRPSDEGTYECVVMKYEKDAFKREHLAEVTLSVKAD
248
CD80 IgV-Fc T13R/Q33R/E35D/M47L/V68M (Fc fusion, not shown: a dimerising Fc or GST) VIHVTKEVKEVARLSCGHNVSVEELAQTRIYWRKDKKMVLTMMSGDLNIWPEYKNRTIFDITNNLSIMILALRPSDEGTYECVVLKYEKDAFKREHLAEVTLSVKAD
1040

The record that follows has no Ratio of PDL1:CD28 shown yet.
Asked: // query Ratio of PDL1:CD28 value for entry CD80 IgV-Fc T13R/Q33R/E35D/M38I/M47L/V68M (Fc fusion, not shown: a dimerising Fc or GST) VIHVTKEVKEVARLSCGHNVSVEELAQTRIYWRKDKKIVLTMMSGDLNIWPEYKNRTIFDITNNLSIMILALRPSDEGTYECVVLKYEKDAFKREHLAEVTLSVKAD
Given back: 325
